System: Staphylococcus epidermidis
Experiment: Antibacterial activity against methicillin-sensitive Staphylococcus epidermidis after 16 hrs by NCCLS agar dilution method
Assay type: functional
For each entry below, report its MIC value.
Numbers only, in µg/mL.

Example cases with answers are listed next.
CN1CCC(Oc2ccc(-c3ccc4c(c3)OC[C@H]3[C@H](CO)OC(=O)N43)cn2)CC1 4
O=C1O[C@@H](CO)[C@@H]2COc3cc(-c4ccc(N5C[C@@H]6CCCN[C@@H]6C5)nc4)ccc3N12 4

Moving on to another molecule below.
IN: Request - read-out MIC | tested on Staphylococcus epidermidis | molecule CN1CCN(c2ccc(-c3ccc4c(c3)OC[C@H]3[C@H](CO)OC(=O)N43)cn2)CC1
OUT: 2
